B1: MYBL2 (parent)
chain: FPNRTDQQCQYRWLRVLNPDLVKG

- Variants of: B1
- test.summary: protein stability index of a GFP-peptide fusion (GPS, HEK-293T) (PSI 1-6); higher = more stable;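 further: lentivirally expressed fusions sorted by FACS into six bins by GFP to DsRed ratio, PSI derived from sequencing read proportions per bin multiplied by bin number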
- experimental.parameters: c terminus: a fixed tail appended

[
  {
    "sequence.code": "FPNRTDQQCQYIWLRVLNPDLVKG [R12I]",
    "protein stability index": 1.97
  },
  {
    "sequence.code": "FPNRTDQQCQYRVLRVLNPDLVKG [W13V]",
    "protein stability index": 2.39
  },
  {
    "sequence.code": "FPNRTDQQCQYHWLRVLNPDLVKG [R12H]",
    "protein stability index": 3.76
  },
  {
    "sequence.code": "FPNRTDQQCQYRWLRVLNPDLVYG [K23Y]",
    "protein stability index": 1.38
  },
  {
    "sequence.code": "NPNRTDQQCQYRWLRVLNPDLVKG [F1N]",
    "protein stability index": 2.47
  },
  {
    "sequence.code": "FKNRTDQQCQYRWLRVLNPDLVKG [P2K]",
    "protein stability index": 2.3
  },
  {
    "sequence.code": "FPNRTDQQHQYRWLRVLNPDLVKG [C9H]",
    "protein stability index": 2.88
  },
  {
    "sequence.code": "FPNRTDQQCQYRMLRVLNPDLVKG [W13M]",
    "protein stability index": 2.27
  },
  {
    "sequence.code": "FPNRTDQGCQYRWLRVLNPDLVKG [Q8G]",
    "protein stability index": 1.34
  },
  {
    "sequence.code": "FPNRTDQQCQYRWLRVLNPDLVIG [K23I]",
    "protein stability index": 1.95
  },
  {
    "sequence.code": "FPNRTHQQCQYRWLRVLNPDLVKG [D6H]",
    "protein stability index": 1.94
  },
  {
    "sequence.code": "FPNRTDQQCQYRWLRMLNPDLVKG [V16M]",
    "protein stability index": 1.78
  },
  {
    "sequence.code": "FPNRTDQQCQYWWLRVLNPDLVKG [R12W]",
    "protein stability index": 1.95
  },
  {
    "sequence.code": "FPNRTDQQCQYRWCRVLNPDLVKG [L14C]",
    "protein stability index": 2.02
  },
  {
    "sequence.code": "FPNRTDQQCQYRALRVLNPDLVKG [W13A]",
    "protein stability index": 2.59
  },
  {
    "sequence.code": "FPNRTDQQCQYRWYRVLNPDLVKG [L14Y]",
    "protein stability index": 1.83
  },
  {
    "sequence.code": "FPNRTDQQCQYRWLRVLNPDLVKN [G24N]",
    "protein stability index": 2.44
  },
  {
    "sequence.code": "FPNRTDQQCQYRELRVLNPDLVKG [W13E]",
    "protein stability index": 3.26
  },
  {
    "sequence.code": "FPNRTDQQCQYRWLRVLNPTLVKG [D20T]",
    "protein stability index": 1.54
  },
  {
    "sequence.code": "FPNRTDVQCQYRWLRVLNPDLVKG [Q7V]",
    "protein stability index": 1.85
  },
  {
    "sequence.code": "FPNRTDQQCQYRWLRVLNPELVKG [D20E]",
    "protein stability index": 2.03
  },
  {
    "sequence.code": "FPNRTDQQCQYRWLRVLNPDLVCG [K23C]",
    "protein stability index": 3.33
  },
  {
    "sequence.code": "FPNRTIQQCQYRWLRVLNPDLVKG [D6I]",
    "protein stability index": 2.07
  },
  {
    "sequence.code": "FPQRTDQQCQYRWLRVLNPDLVKG [N3Q]",
    "protein stability index": 2.04
  },
  {
    "sequence.code": "FPNRTDQQCQYRWLRVLNPDVVKG [L21V]",
    "protein stability index": 2.26
  },
  {
    "sequence.code": "FPNRTDQQDQYRWLRVLNPDLVKG [C9D]",
    "protein stability index": 2.19
  },
  {
    "sequence.code": "FPNRTDQQCQYRWLRVLNPDLVHG [K23H]",
    "protein stability index": 1.7
  },
  {
    "sequence.code": "FPNRTDQQCQYRWLRVGNPDLVKG [L17G]",
    "protein stability index": 2.45
  },
  {
    "sequence.code": "FPNRTGQQCQYRWLRVLNPDLVKG [D6G]",
    "protein stability index": 1.51
  },
  {
    "sequence.code": "FPNRTDQQCQPRWLRVLNPDLVKG [Y11P]",
    "protein stability index": 2.13
  },
  {
    "sequence.code": "FPNRTDQQCQYRWLRGLNPDLVKG [V16G]",
    "protein stability index": 2.12
  },
  {
    "sequence.code": "FPNRTDQYCQYRWLRVLNPDLVKG [Q8Y]",
    "protein stability index": 1.88
  },
  {
    "sequence.code": "FPNRTDQVCQYRWLRVLNPDLVKG [Q8V]",
    "protein stability index": 2.05
  },
  {
    "sequence.code": "FPNRTDQQCQYRWLRVRNPDLVKG [L17R]",
    "protein stability index": 2.28
  },
  {
    "sequence.code": "FPNRKDQQCQYRWLRVLNPDLVKG [T5K]",
    "protein stability index": 2.29
  },
  {
    "sequence.code": "FPFRTDQQCQYRWLRVLNPDLVKG [N3F]",
    "protein stability index": 1.63
  },
  {
    "sequence.code": "FPNRTDQQCQYRWSRVLNPDLVKG [L14S]",
    "protein stability index": 2.35
  },
  {
    "sequence.code": "FPNRTDQQCQYRWLRVLNPDLVKW [G24W]",
    "protein stability index": 1.55
  },
  {
    "sequence.code": "FPNRTDQQCQGRWLRVLNPDLVKG [Y11G]",
    "protein stability index": 2.31
  },
  {
    "sequence.code": "FPNRTDQQCQYRWLRVLNPSLVKG [D20S]",
    "protein stability index": 2.24
  },
  {
    "sequence.code": "FPNRTDYQCQYRWLRVLNPDLVKG [Q7Y]",
    "protein stability index": 1.61
  },
  {
    "sequence.code": "FPNRTDQQCQYRWLRVLNGDLVKG [P19G]",
    "protein stability index": 2.26
  },
  {
    "sequence.code": "FPNRTDQQCQTRWLRVLNPDLVKG [Y11T]",
    "protein stability index": 2.36
  },
  {
    "sequence.code": "FPNRTDQACQYRWLRVLNPDLVKG [Q8A]",
    "protein stability index": 1.38
  },
  {
    "sequence.code": "FPARTDQQCQYRWLRVLNPDLVKG [N3A]",
    "protein stability index": 2.27
  },
  {
    "sequence.code": "FPNRTDQQCQYRGLRVLNPDLVKG [W13G]",
    "protein stability index": 3.56
  }
]

Origin of measurements: the supplement of paper PMC10567573
